I'd be grateful if you could share measured glycan array binding signal (z-score) for these entries.
- Test System: Gal(b1-4)Glc6S
- Method Description: glycan array binding signal (z-score within array); higher = stronger binding
- Condition Parameters: glycan notation: IUPAC condensed, linker removed
Many of the other results were omitted from the sample, so the strongest signals are more common in it than they were.
Answers are plain numbers.

// below: answered binders
Binder | Numeric Value
Microvirin-2 (Microcystis aeruginosa) (protein) MPNFSHTCSSINYDPDSTILSAECQARDGEWLPTELRLSDHIGNIDGELQFGDQNFQETCQDCHLEFGDGEQSVWLVCTCQTMDGEWKSTQILLDSQIDNNDSQLEIGGSMPNFSHTCSSINYDPDSTILSAECQARDGEWLPTELRLSDHIGNIDGELQFGDQNFQETCQDCHLEFGDGEQSVWLVCTCQTMDGEWKSTQILLDSQIDNNDSQLEIG | -0.134
HHL-2 (Homo sapiens), P07307 (protein) MAKDFQDIQQLSSEENDHPFHQGEGPGTRRLNPRRGNPFLKGPPPAQPLAQRLCSMVCFSLLALSFNILLLVVICVTGSQSEGHRGAQLQAELRSLKEAFSNFSSSTLTEVQAISTHGGSVGDKITSLGAKLEKQQQDLKADHDALLFHLKHFPVDLRFVACQMELLHSNGSQRTCCPVNWVEHQGSCYWFSHSGKAWAEAEKYCQLENAHLVVINSWEEQKFIVQHTNPFNTWIGLTDSDGSWKWVDGTDYRHNYKNWAVTQPDNWHGHELGGSEDCVEVQPDGRWNDDFCLQVYRWVCEKRRNATGEVA | -0.52

# input for lookup
Data request: Report glycan array binding signal (z-score) for CLEC-6 (Homo sapiens), Q8WXI8 (protein) MGLEKPQSKLEGGMHPQLIPSVIAVVFILLLSVCFIASCLVTHHNFSRCKRGTGVHKLEHHAKLKCIKEKSELKSAEGSTWNCCPIDWRAFQSNCYFPLTDNKTWAESERNCSGMGAHLMTISTEAEQNFIIQFLDRRLSYFLGLRDENAKGQWRWVDQTPFNPRRVFWHKNEPDNSQGENCVVLVYNQDKWAWNDVPCNFEASRICKIPGTTLN please.
Data returned: -0.263
